Where these numbers come from: PubChem BioAssay (NCI)

Tested on: RXF-631 renal
assay name: NCI tumour cell line growth inhibition, 48 h
measured quantity: TGI (µM)
Answers are plain numbers, in µM.

CC(Nc1ccc(S(=O)(=O)N=C(N)N)cc1)c1c2ccccc2nc2ccccc12 (stereo not given) ... 96.6

Moving on to another compound below.
Value of TGI reported for the compound Cc1ccc(NC(=O)CC2Sc3ccccc3NC2=O)c(C)c1 (stereo not given) is 33.1

###

So I've got a bunch of compounds here, and I need their TGI values.
Tested on: MCF7 breast
assay name: NCI tumour cell line growth inhibition, 48 h

O=C(Nc1ccc(-n2ccc3c(NC(=O)c4ccccc4)ncnc32)cc1)Nc1ccc(Cl)c(Cl)c1 ... 8.25 µM
COc1c2ccoc2c(OC)c2oc(=O)ccc12 ... > 100 µM
C[C@@]12CCC[C@@](C)(C(=O)O)C1CC[C@]13C[C@@](O)(CO)[C@](O)(CCC12)C3 (some centres undefined) ... > 100 µM
O=C(COc1cc(O)c2c(=O)cc(-c3ccccc3)oc2c1)Nc1ccccc1C(F)(F)F ... > 100 µM
CC1(C)OC(=O)N(c2ccccc2)C12C=Cc1cccc([N+](=O)[O-])c1O2 (centres undefined) ... > 100 µM

For each listed entry, give its TGI.
1. CC(=O)OCC1OC(Nn2c(=O)[nH]c3ccccc3c2=O)C(OC(C)=O)C(OC(C)=O)C1OC(C)=O (centres undefined)
2. CC(C)=CC(Cc1ccccc1)S(=O)(=O)c1nc2ccccc2s1 (centres undefined)
3. c1ccc(CN2COc3c(ccc4c3OCN(Cc3ccccc3)C4)C2)cc1

1. > 100 µM
2. 31.5 µM
3. > 100 µM

Measured TGI, CC1(C)Cc2nc3c(cc2C(=O)C1C=N/C(C#N)=C(\N)C#N)C(=O)C(C=N/C(C#N)=C(\N)C#N)C(C)(C)C3 (centres undefined) : 6.23 µM

###

Test system: HOP-18 NSCLC
assay name: NCI tumour cell line growth inhibition, 48 h
measured quantity: TGI

# example entries with known answers
Cc1ccc(NC(=O)CC2Sc3ccccc3NC2=O)c(C)c1 (stereo unspecified) ... 30.2 µM
Cc1ccc(S(=O)(=O)NC2(C=O)CCCC3CCCCC32)cc1 (stereo unspecified) ... > 100 µM
O=C(CCN1CCN(c2ccccc2)CC1)N1CCc2c([nH]c3ccccc23)C1c1cccnc1 (stereo unspecified) ... 36.1 µM

Provide TGI values for the following items, in order.
1. CC(=O)C1C(c2ccc(N(C)C)cc2)c2cc3c(cc2OC1(C)O)OCO3 (stereo unspecified)
2. CC(=O)OC[C@@H](COC(=O)/C=C/c1ccc(O)cc1)OC1OC(CO)C(O)C(O)C1O (stereo partly specified)
3. COc1ccc(-c2cc(=O)c3cc(OC)ccc3[nH]2)cc1

["> 100 µM", "> 100 µM", "> 100 µM"]

###

Answer each item with its documented TGI.
Tested on: UACC-257 melanoma
assay name: NCI tumour cell line growth inhibition, 48 h

Here are 5 compounds together with their reported answers.
Cn1c2c(c3ccc([N+](=O)[O-])cc3c1=O)C(=O)c1ccccc1-2 ... > 100 µM
CC(C)[C@H](NC(=O)[C@H](N)Cc1ccc(N(CCCl)CCCl)cc1)C(=O)O ... > 100 µM
NCCOCCOCCNc1nc(-c2ccccc2)nc(N2CCN(c3ccccn3)CC2)n1 ... 12.9 µM
C#CCSc1cc(Cl)c(C)cc1S(=O)(=O)Nc1nc2ccccc2o1 ... 81.6 µM
CC(C)=CCC/C(C)=C/CC/C(C)=C/CSc1ccccc1C(=O)O ... > 100 µM

Go through the list and state TGI for each entry.
1. Cn1c(=O)c2c(nc3n2CCCC(=O)N3CC(O)CCl)n(C)c1=O (stereo not given)
2. CCN(CC)CC(O)CNc1c2ccc([N+](=O)[O-])cc2nc2cc(OC)c(OC)cc12 (stereo not given)
3. Cc1cccc2c1c(=O)c1c(O)c3c(cc1n2C)OC(C)(C)C=C3
4. C[C@]12CC/C(=N\O)C=C1CC[C@@H]1C2CC[C@@]2(C)C1CC[C@@H]2OC1CCCCO1 (stereo not given in full)
5. COC(=O)C1(C#N)C(C)(C)N=C(c2ccccc2)C12CCCCC2 (stereo not given)
6. c1ccc(CN2COc3c(ccc4c3OCN(Cc3ccccc3)C4)C2)cc1

1. > 100 µM
2. 3.83 µM
3. > 10 µM
4. 34.6 µM
5. > 100 µM
6. 6.53 µM

###

System: EKVX NSCLC
assay name: NCI tumour cell line growth inhibition, 48 h
measured quantity: TGI (µM)
One number for each entry, in µM.

Could I get TGI for every one of these entries?
1. O=C(Cc1ccc(F)c(F)c1)Nc1cc(C2(C(F)(F)F)CC2)nn1Cc1ccccc1
2. COc1cc(C(=O)N2CCN(c3ncnc4ccccc34)CC2)c(N)cc1OCc1ccccc1
3. CCOC(=O)c1cc2/c(=C\c3ccc(N(C)C)cc3)c3ccccc3n2[n+]1C
4. Oc1ccc(C(c2ccc(O)cc2)c2ccc(O)cc2)cc1

1. 12.2
2. 48.5
3. 21.5
4. 46.8

###

System: MDA-MB-231 breast
assay name: NCI tumour cell line growth inhibition, 48 h; in the data active = GI50 below about 0.43 µM; inactive = the rest
Allowed answers: T (active), F (inactive)

Some entries whose results are on file:
Cc1nc2ccccc2c(/C=C/c2ccc(Cl)cc2)c1C(=O)/C=C/c1ccc(C(F)(F)F)cc1 ... T
CO/N=C(\C)c1ccc(Nc2cc(-c3ccccc3)nc3ccc(OC)cc23)cc1 ... F
CCN(CC)c1ccc(C(O)C2=CC(=O)c3ccccc3C2=O)cc1 (stereo not given) ... F
CC(C)=CCC/C(C)=C/CC/C(C)=C/CSc1ccccc1C(=O)O ... F

Moving on to another compound below.
Give the logged outcome of this assay for the following compound: "CS(=O)(=O)CCc1cccc(C(=O)c2cnn(-c3ccc(F)cc3)c2N)c1"
F

###

Tested on: OVCAR-3 ovarian
assay name: NCI tumour cell line growth inhibition, 48 h
Exercise: state measured TGI for each of the molecules provided.

Sample records with TGI:
O=c1c2cc3c(=O)n4c(cc(-c5ccccc5)c5cc(Cl)ccc54)nc3cc2nc2cc(-c3ccccc3)c3cc(Cl)ccc3n12 ... > 100 µM
CC(C)C(=O)Nc1cc(C(F)(F)F)ccc1[N+](=O)[O-] ... > 100 µM

"O=C1C2=C(CC3=C(C2)CS(=O)(=O)C3)C(=O)C2=C1CC1=C(C2)CS(=O)(=O)C1" tested on OVCAR-3 ovarian gave TGI: 9.03 µM

###

Test system: NCI-H23 lung
assay name: NCI tumour cell line growth inhibition, 48 h
For each entry below, report its TGI value.
Give bare numbers, in µM.

Recorded TGI, per entry:
C=C1CCC2C3(C)COC(c4ccccc4)OC3CCC2(C)C1/C=C/C1=CCOC1=O (stereo not drawn) ... 24.2
O=C(Nc1ccncc1)C(=O)c1cn(S(=O)(=O)c2ccc(Cl)cc2)c2ccccc12 ... 33.1
O=C1C=CC(=Nc2cc(Br)c(O)c(Br)c2)C=C1 ... 38.3

Quick note, TGI for CC(=O)Nc1ccc2c3c(cc(O)c2c1)N(C(=O)CCCCCCC(=O)N1CC(CCl)c2c1cc(O)c1cc(NC(C)=O)ccc21)CC3CCl (stereo not drawn) landed at 0.0228

###

Tested on: EKVX NSCLC
assay name: NCI tumour cell line growth inhibition, 48 h
Can you tell me TGI for the items I'm about to list?

Consider the reported TGI for these compounds:
COc1ccc2ccccc2c1C1NC(=O)c2ccccc2N1 (stereo not given) ... > 100 µM
CC(=O)OCC1OC(Nn2c(=O)[nH]c3ccccc3c2=O)C(OC(C)=O)C(OC(C)=O)C1OC(C)=O (stereo not given) ... > 100 µM
COc1ccc(CCCNC(=O)c2cc(OC)c(OC)cc2CCO)cc1OC ... > 100 µM
CC(=O)O[C@H]1CC[C@@]2(C)C(=CC[C@@H]3[C@@H]2CC[C@]2(C)c4c(C)nn(-c5ccccc5)c4C[C@@H]32)C1 ... 53.7 µM
CC1(C)Cc2nc3c(cc2C(=O)C1C=N/C(C#N)=C(\N)C#N)C(=O)C(C=N/C(C#N)=C(\N)C#N)C(C)(C)C3 (stereo not given) ... 6.01 µM

Dear colleague, could you send me TGI for each of the items below? Thanks.
1. CC(=O)NC1(c2cc3ccccc3s2)CCCCCC1
2. COC(=O)C(C(=O)OC)C1CCCC(=O)C1 (stereo not given)
3. O=C(c1ccccc1)C(CN1CCCCC1)c1ccccc1 (stereo not given)
4. CCOC(=O)N1CCC(=O)C(CNC23CC4CC(CC(C4)C2)C3)C1 (stereo not given)

57.3 µM
> 100 µM
16.7 µM
> 100 µM

Lab book: TGI of "C/C(CC(=O)Nc1ccc(C)c(C)c1)=N\NC(N)=O" noted as > 100 µM

###

Test system: DU-145 prostate
assay name: NCI tumour cell line growth inhibition, 48 h; in the data active = GI50 below about 0.43 µM; inactive = the rest
Tick one outcome: active, inactive

These solved cases illustrate the format of a correct answer.
[N-]=[N+]=NCCCCCC(=O)OC(C(=O)c1ccccc1)c1cccc(OCC(=O)NCCOCCOCCNC(=O)CCCC[C@@H]2SC[C@@H]3NC(=O)N[C@@H]32)c1 (stereo partly drawn) ... inactive
Clc1ccc(-c2c3c(nn2-c2ccccn2)CCc2ccccc2-3)cc1Cl ... inactive

Look up the recorded call for "CC(=O)OC(C)(C)/C(C)=C/C(=O)O[C@H]1C(=O)O[C@@H]2C[C@H]3[C@H](C)C(=O)C(O[C@@H]4O[C@H](CO)[C@@H](O)[C@H](O)[C@H]4O)=C[C@]3(C)[C@H]3[C@@H](O)[C@H](O)[C@@]4(C(=O)O)OC[C@]32[C@@H]14" in this test.
inactive

Fill in: this test's call for "N=c1ccn(O)cc1/C=C1/C(=O)Nc2ccccc21" is ___
inactive
